Test: Pharmacokinetic study of 157 (and metabolite endothal) in SD rats, iv and po; plasma, liver, brain
Type: in vivo
Conditions: female, Sprague-Dawley (SD), rat, in vivo, iv, 1.5 mg/kg, 157 in Liver, iv 1.5 mg/kg, rat 1; read-out: MRT (0-t)
Procedure: The blood, liver and brain tissue samples were collected at predetermined times from rats. […] Compound were diluted shortly before use in 4% sodium bicarbonate for sterile injection (this is the standard pediatric solution of NaHCO3 with a pH of about 8.5). Compound 153 was freshly prepared by diluting the drugs shortly before use in 4% sodium bicarbonate for sterile injection (this is the standard pediatric solution of NaHCO3 with a pH of about 8.5). […]
Reported metric: MRT last (min)

CCCCCCCOC(=O)C1C2CCC(O2)C1C(=O)N1CCN(C)CC1 (stereo not shown) [Compound 157] :: 31.9
